- ASSAYED TARGET: Solute carrier family 2, facilitated glucose transporter member 1 (Homo sapiens) (UniProt P11166)
- Sequence (P11166 whole entry): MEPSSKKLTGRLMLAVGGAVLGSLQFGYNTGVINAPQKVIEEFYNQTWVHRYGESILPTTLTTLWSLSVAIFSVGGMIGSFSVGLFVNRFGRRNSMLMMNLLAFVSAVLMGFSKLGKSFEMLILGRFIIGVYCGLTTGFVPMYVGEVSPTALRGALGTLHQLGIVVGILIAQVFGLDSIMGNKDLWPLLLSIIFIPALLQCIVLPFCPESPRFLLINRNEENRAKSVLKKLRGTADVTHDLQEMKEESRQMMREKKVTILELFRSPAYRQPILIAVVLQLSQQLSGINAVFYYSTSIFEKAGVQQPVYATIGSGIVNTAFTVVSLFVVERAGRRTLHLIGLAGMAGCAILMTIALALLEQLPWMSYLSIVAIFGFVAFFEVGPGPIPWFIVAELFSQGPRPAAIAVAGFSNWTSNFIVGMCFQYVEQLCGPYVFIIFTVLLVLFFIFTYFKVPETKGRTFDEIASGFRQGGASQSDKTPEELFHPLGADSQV
- TEST DESCRIPTION: ST_JUDE_LEISH: Cytotoxicity at 2uM final concentration against transgenic Leishmania Mexicana promastigotes LmGLUT1 that are glucose transport deficient and complemented with the human glucose transporter GLUT1. Activity is measured by DNA content using SYBR green in vitro
- Format: functional
Reported inhibition values for the following compounds.
REPORTED METRIC: inhibition (%)

>  <COMPOUND>
COc1ccc2c(NN=Cc3ccncc3)ccnc2c1

>  <RESULT VALUE>
-0.81

$$$$
>  <COMPOUND>
CC(C)(C)c1ccc2[nH]c(-c3ccc(C(=O)NCc4cccc(C(F)(F)F)c4)cc3)nc2c1

>  <RESULT VALUE>
-0.02

$$$$
>  <COMPOUND>
CCN1CCN(c2cc(C)c3cc(NC(=O)c4cccc([N+](=O)[O-])c4)ccc3n2)CC1

>  <RESULT VALUE>
-0.98

$$$$
>  <COMPOUND>
CC(C)CC(=O)N1CCNC[C@@H]1C(=O)NCCSCc1c(F)cccc1Cl

>  <RESULT VALUE>
3.36

$$$$
>  <COMPOUND>
COc1ccc2nc(NC(N)=NC(=O)Nc3ccccc3)nc(C)c2c1

>  <RESULT VALUE>
2.55

$$$$
>  <COMPOUND>
COc1cc(NC(=O)/C=C/c2cc(F)cc(F)c2F)cc(OCCN2CCC3(CC2)OCCO3)c1

>  <RESULT VALUE>
3.83

$$$$
>  <COMPOUND>
CCN1CCC(N(Cc2ccc(-c3ccc(C(F)(F)F)cc3)cc2)C(=O)Cn2c(CCc3cccc(F)c3F)cc(=O)c3ccccc32)CC1

>  <RESULT VALUE>
-0.63

$$$$
>  <COMPOUND>
CC(=O)Nc1nc(C(=O)Nc2cccc(-c3cccc(-c4nc5cc(F)ccc5[nH]4)c3)c2)cs1

>  <RESULT VALUE>
2.3

$$$$
>  <COMPOUND>
CCCCCCCCS(=O)(=O)NCCCC1CCN(CCCCCNC(=O)C=Cc2ccc(Cl)c(Cl)c2)CC1

>  <RESULT VALUE>
2.57

$$$$
>  <COMPOUND>
CN(C(=O)C(C)(C)Oc1ccc(Cl)cc1)C1CCN(CCCCCNC(=O)/C=C/c2ccc(Cl)c(Cl)c2)CC1

>  <RESULT VALUE>
1.85

$$$$
>  <COMPOUND>
COc1ccc(C(=O)Nc2ccc(Cl)cc2C(=O)Nc2ccncc2)cc1

>  <RESULT VALUE>
4.33

$$$$
>  <COMPOUND>
Cc1cc2ncn(-c3nccc(NCc4ccc(F)c(C)c4)n3)c2cc1C

>  <RESULT VALUE>
4

$$$$
>  <COMPOUND>
Oc1ccc(-c2cc(-c3ccc(O)cc3)nc(-c3ccccc3)n2)cc1

>  <RESULT VALUE>
2.51

$$$$
>  <COMPOUND>
CSc1ccc(C=CC(=O)NC(=O)c2ccccc2O)cc1

>  <RESULT VALUE>
1.32

$$$$
>  <COMPOUND>
CCN(CC)c1ccc(C=CC(=O)NCCN2CCC(N(C)C3CCCCC3C)CC2)cc1 (centres undefined)

>  <RESULT VALUE>
-2.14

$$$$
>  <COMPOUND>
COc1cc2nc(NCC3CCN(C(=O)c4ccc(-c5ccc(C(=O)N(C)C)cc5C)cc4)CC3)nc(N)c2cc1OC

>  <RESULT VALUE>
10.9

$$$$
>  <COMPOUND>
CN(C)Cc1ccc(-c2ccc(NC(=O)c3ccc4c(=O)n(Cc5ccccc5)cnc4c3)cc2)cc1

>  <RESULT VALUE>
95.2

$$$$
>  <COMPOUND>
Cc1cc(N(C)C)nc(Nc2ccc(NC(=O)CCc3ccccc3)cc2)n1

>  <RESULT VALUE>
3.05

$$$$
>  <COMPOUND>
O=C(NCc1ccc(F)cc1)Nc1cccc(-c2ccc(-c3nc4cc(F)ccc4[nH]3)cc2)c1

>  <RESULT VALUE>
6.43

$$$$

----------
- ASSAYED TARGET: Hexose transporter 1 (Plasmodium falciparum) (UniProt O97467)
- TEST DESCRIPTION: ST_JUDE_LEISH: Cytotoxicity at 2uM final concentration against transgenic Leishmania Mexicana promastigotes LmPfHT that are glucose transport deficient and complemented with the Plasmodium falciparum hexose transporter. Activity is measured by DNA content using SYBR green in vitro
- Format: functional
Please note: fulfilled applies when inhibition is 3% or greater, and not fulfilled applies otherwise.

>  <SMILES REPRESENTATION>
CCCCOc1cc(C)nc2ccc(NC(=O)COCC(=O)Nc3ccc4nc(C)cc(OCCCC)c4c3)cc12

>  <CLASS>
fulfilled

$$$$
>  <SMILES REPRESENTATION>
CCc1ccc(C2CCN(CCCCNC(=O)c3ccc(NC(=O)c4ccc(Cl)cc4)cc3)CC2)cc1

>  <CLASS>
not fulfilled

$$$$
>  <SMILES REPRESENTATION>
CN1CCN(Cc2ccc(-c3ccc4c(Nc5cc(O)c(F)cc5Cl)ccnc4c3)o2)CC1

>  <CLASS>
not fulfilled

$$$$
>  <SMILES REPRESENTATION>
Cc1sc2ncnc(Sc3nc4ccccc4[nH]3)c2c1C

>  <CLASS>
fulfilled

$$$$
>  <SMILES REPRESENTATION>
N=c1[nH]c2cccc3ccc4cccc1c4c32

>  <CLASS>
fulfilled

$$$$

----------
Recorded inhibition for the following compounds
- ASSAYED TARGET: Solute carrier family 2, facilitated glucose transporter member 1 (Homo sapiens)
- TEST DESCRIPTION: ST_JUDE_LEISH: Cytotoxicity at 2uM final concentration against transgenic Leishmania Mexicana promastigotes LmGLUT1 that are glucose transport deficient and complemented with the human glucose transporter GLUT1. Activity is measured by DNA content using SYBR green in vitro
- Assay type: functional

>  <COMPOUND>
Cc1cc(Nc2ccc(C)c(Cl)c2)n2nc(C(F)(F)F)nc2n1

>  <UNIT>
%

>  <inhibition>
6.65

$$$$
>  <COMPOUND>
CN(C)c1nc(NN=Cc2cc(Cl)ccc2O)nc(Nc2ccc(F)cc2)n1

>  <UNIT>
%

>  <inhibition>
13

$$$$
>  <COMPOUND>
O=C(c1ccc(-c2cnc3[nH]cc(-c4ccc(C(=O)N5CCOCC5)cc4)c3c2)cc1)N1CCOCC1

>  <UNIT>
%

>  <inhibition>
-0.49

$$$$
>  <COMPOUND>
CC(=O)Nc1ccc(C(=O)Nc2cccc(-c3ccc(-c4nc5ccccc5[nH]4)cc3)c2)cn1

>  <UNIT>
%

>  <inhibition>
4.19

$$$$
>  <COMPOUND>
Clc1cc(Nc2ccnc3ccc(Br)cc23)ccc1Oc1ccc2ccccc2c1Cl

>  <UNIT>
%

>  <inhibition>
2.41

$$$$
>  <COMPOUND>
COc1cccc(Nc2nc(C)cc(NC3CCCC3)n2)c1

>  <UNIT>
%

>  <inhibition>
21.5

$$$$
>  <COMPOUND>
C=CCN1CCC(N(Cc2cccc(Oc3ccccc3)c2)C(=O)C(c2ccccc2)c2ccccc2)CC1

>  <UNIT>
%

>  <inhibition>
-1.05

$$$$
>  <COMPOUND>
Cc1n[nH]c2cc(Nc3ccnc(Nc4ccc(CN5CCOCC5)cc4)n3)ccc12

>  <UNIT>
%

>  <inhibition>
12.7

$$$$
>  <COMPOUND>
COc1ccc(CNCCCCCCNCc2ccc(OC)c3ccccc23)c2ccccc12

>  <UNIT>
%

>  <inhibition>
59.7

$$$$
>  <COMPOUND>
Cc1ccc(CNc2ccc3ncc(-c4cccc(C(=O)NCCN(C)C)c4)n3n2)c(C)c1

>  <UNIT>
%

>  <inhibition>
5.82

$$$$
>  <COMPOUND>
O=C(Nc1cccc(Cl)c1)OC1CCCN2CCCCC12 (stereo not drawn)

>  <UNIT>
%

>  <inhibition>
10.8

$$$$
>  <COMPOUND>
CC(C)Cn1cc(C2CCN(CCN3CCC(CNC(=O)c4ccc(NC(=O)c5cc(Cl)cc(Cl)c5)cc4)CC3)CC2)c2ccccc21

>  <UNIT>
%

>  <inhibition>
1.27

$$$$
>  <COMPOUND>
COc1ccc(-n2nc(C)c3c2NC(=O)CC3c2ccccc2OCc2ccccc2F)cc1 (stereo not drawn)

>  <UNIT>
%

>  <inhibition>
11.7

$$$$
>  <COMPOUND>
Cc1cc(N2CCOCC2)nc(Nc2ccc(NC(=O)c3cccc4ccccc34)cc2)n1

>  <UNIT>
%

>  <inhibition>
7.25

$$$$
>  <COMPOUND>
COc1ccc(CCNc2nc(NCc3ccccc3)c3cc(OC)c(OC)cc3n2)cc1OC

>  <UNIT>
%

>  <inhibition>
5.66

$$$$
>  <COMPOUND>
COc1cc2cc(-c3nc4ccccc4[nH]3)c(N)nc2cc1OC

>  <UNIT>
%

>  <inhibition>
84

$$$$
>  <COMPOUND>
Cc1cccc2nc(-c3ccc(-c4cccc(CN5CCC(C(N)=O)CC5)c4)cc3)[nH]c12

>  <UNIT>
%

>  <inhibition>
0.21

$$$$
>  <COMPOUND>
CNCCNCc1cccc(-c2cccc(-c3nc4cc(C(F)(F)F)ccc4[nH]3)c2)c1

>  <UNIT>
%

>  <inhibition>
2.15

$$$$
>  <COMPOUND>
O=c1cc(NCC2(CNCc3cn(Cc4ccccc4)c4ccccc34)CCCCC2)[nH]c2ccccc12

>  <UNIT>
%

>  <inhibition>
4.81

$$$$
>  <COMPOUND>
Nc1cccc(CNCc2cccc(-c3cccc(-c4nc5ccccc5[nH]4)c3)c2)c1

>  <UNIT>
%

>  <inhibition>
-1.07

$$$$
>  <COMPOUND>
Cc1cccc2nc(-c3cccc(-c4cccc(NC(=O)Nc5ccc(F)c(F)c5F)c4)c3)[nH]c12

>  <UNIT>
%

>  <inhibition>
1.75

$$$$
>  <COMPOUND>
NCC1CCCN1Cc1cccc(-c2ccc(-c3nc4cc(C(F)(F)F)ccc4[nH]3)s2)c1 (stereo not drawn)

>  <UNIT>
%

>  <inhibition>
1.28

$$$$
>  <COMPOUND>
Cc1c(S(=O)(=O)Nc2ccc3nccc(N4CCN[C@H](C)C4)c3c2)sc2ccc(Cl)cc12

>  <UNIT>
%

>  <inhibition>
-0.53

$$$$
>  <COMPOUND>
CC(=O)Nc1ccc(CN2CCC(NC(=O)c3ccc(-c4cccc(OC(C)C)c4)s3)CC2)cc1

>  <UNIT>
%

>  <inhibition>
6.04

$$$$
>  <COMPOUND>
COc1ccc(NC(=O)c2ccc(-c3cc(NC(=O)c4ccnc(N5CCCC5)c4)ccc3C)s2)cc1N1CCN(C)CC1

>  <UNIT>
%

>  <inhibition>
-1.75

$$$$
>  <COMPOUND>
Cc1cccc2nc(-c3ccc(-c4cccc(CNCc5ccc(CN)cc5)c4)s3)[nH]c12

>  <UNIT>
%

>  <inhibition>
3.9

$$$$
>  <COMPOUND>
O=C(c1ccc(-c2cccc(-c3nc4cc(F)ccc4[nH]3)c2)cc1)N1CCCCC1CN1CCC(O)C1 (stereo not drawn)

>  <UNIT>
%

>  <inhibition>
4.71

$$$$
>  <COMPOUND>
CC(C)(C(=O)Nc1ccc(C2CCC(NCC3CC3)CC2)c(Cl)c1)c1ccc(C(F)(F)F)cc1 (stereo not drawn)

>  <UNIT>
%

>  <inhibition>
0.29

$$$$
>  <COMPOUND>
CCCN(CCC)c1nn2c(=O)c(C(=O)N3CCN(Cc4ccccc4)CC3)cnc2s1

>  <UNIT>
%

>  <inhibition>
1.4

$$$$
>  <COMPOUND>
CCOC(=O)c1cccc(NC(=O)Nc2cccc(-c3ncc(OCCCN)c4c3nc(-c3nonc3N)n4CC)c2)c1

>  <UNIT>
%

>  <inhibition>
2.41

$$$$
>  <COMPOUND>
Fc1ccc2[nH]c(-c3ccccc3)nc2c1CN1CCC(N2CCCC2)CC1

>  <UNIT>
%

>  <inhibition>
-0.78

$$$$
>  <COMPOUND>
O=C(/C=C/c1ccc(Cl)cc1)NCCCCCN1CCCC(C(=O)Nc2cccc(Cl)c2)C1 (stereo not drawn)

>  <UNIT>
%

>  <inhibition>
2.85

$$$$
>  <COMPOUND>
COc1ccc(CN(C)CCCc2ccc(NC(=O)c3cc4ccccc4[nH]3)cc2)cc1OC

>  <UNIT>
%

>  <inhibition>
3.27

$$$$
>  <COMPOUND>
CC(C)OC(=O)c1ccc(NC(=O)N[C@@H](Cc2ccc(O)cc2)C(=O)NC2CC3CCC(C2)N3Cc2ccccc2)cc1 (stereo partly drawn)

>  <UNIT>
%

>  <inhibition>
5.85

$$$$
>  <COMPOUND>
Cc1cc(NC2CCCC2)nc(Nc2ccccc2F)n1

>  <UNIT>
%

>  <inhibition>
11.8

$$$$
>  <COMPOUND>
Cc1cccc(NC(=S)NC2CCN(CCCCCNC(=O)/C=C/c3ccc(Cl)c(Cl)c3)CC2)c1

>  <UNIT>
%

>  <inhibition>
0.27

$$$$
>  <COMPOUND>
CN1CCN(c2cccc(-c3nnc(-c4ccc(OCC(=O)NCc5ccc(C(F)(F)F)cc5)c([N+](=O)[O-])c4)o3)c2)CC1

>  <UNIT>
%

>  <inhibition>
3.75

$$$$
>  <COMPOUND>
CC(=O)Nc1nc(C(=O)Nc2cccc(-c3cccc(-c4nc5cccc(C)c5[nH]4)c3)c2)cs1

>  <UNIT>
%

>  <inhibition>
6.67

$$$$
